Where these numbers come from: patent US20240360228A1

- test_system: T1, human CCR8 (human, UniProt P51685 1-355)
- T1 construct: Native CCR8 on human PBMC (CCR8+ CD3+ or CCR8+ CD4+ lymphocytes); also called chemokine (C-C motif) receptor 8
- T1 sequence (P51685 whole entry): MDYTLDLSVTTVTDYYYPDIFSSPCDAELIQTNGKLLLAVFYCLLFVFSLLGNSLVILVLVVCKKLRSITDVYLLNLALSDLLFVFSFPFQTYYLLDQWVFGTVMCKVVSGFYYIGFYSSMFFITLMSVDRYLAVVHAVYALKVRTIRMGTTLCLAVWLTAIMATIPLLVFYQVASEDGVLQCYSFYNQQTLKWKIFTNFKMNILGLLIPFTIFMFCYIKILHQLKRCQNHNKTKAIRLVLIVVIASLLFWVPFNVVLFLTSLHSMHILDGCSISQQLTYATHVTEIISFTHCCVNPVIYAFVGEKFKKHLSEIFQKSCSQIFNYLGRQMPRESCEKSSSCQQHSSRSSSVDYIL
- test: flow blocking, PBMC CCR8+CD4+; competitor PE-AB4
assay_readout: % Blocking
Your answer should be a number followed by the unit of measure.

Below are worked cases with known answers.
| binder | assay_readout | readout_value |
| --- | --- | --- |
| AB12 (antibody, V domains shown, Hybridoma monoclonal; also called antibody 12; clone 12) VH: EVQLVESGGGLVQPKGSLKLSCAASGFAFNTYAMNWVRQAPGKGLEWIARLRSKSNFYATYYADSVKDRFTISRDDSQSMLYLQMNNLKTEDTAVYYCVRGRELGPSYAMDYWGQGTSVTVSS VL: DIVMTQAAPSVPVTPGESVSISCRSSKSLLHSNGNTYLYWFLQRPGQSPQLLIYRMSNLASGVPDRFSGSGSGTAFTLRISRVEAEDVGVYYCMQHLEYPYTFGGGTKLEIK | % Blocking | -33.1% |
| AB10 (antibody, V domains shown, Hybridoma monoclonal; also called antibody 10; clone 10) VH: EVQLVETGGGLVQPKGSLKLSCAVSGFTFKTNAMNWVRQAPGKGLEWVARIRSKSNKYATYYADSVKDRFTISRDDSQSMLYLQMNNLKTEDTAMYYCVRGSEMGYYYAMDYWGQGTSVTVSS VL: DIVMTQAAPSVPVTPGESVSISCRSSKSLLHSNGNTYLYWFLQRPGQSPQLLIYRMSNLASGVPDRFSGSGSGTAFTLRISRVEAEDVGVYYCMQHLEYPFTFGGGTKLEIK | % Blocking | -38.8% |

Now take the following binder into account.
Find the measured % Blocking of AB4 (antibody, V domains shown, Hybridoma monoclonal; also called antibody 4; clone 4) VH: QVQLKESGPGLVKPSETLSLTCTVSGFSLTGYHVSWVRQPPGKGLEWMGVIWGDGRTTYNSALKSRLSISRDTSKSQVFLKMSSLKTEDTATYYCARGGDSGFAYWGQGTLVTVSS VL: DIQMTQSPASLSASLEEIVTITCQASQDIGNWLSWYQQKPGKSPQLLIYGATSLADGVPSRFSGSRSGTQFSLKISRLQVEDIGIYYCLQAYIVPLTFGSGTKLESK and report it.
94.9%
